Test system: HOP-62 NSCLC
Assay: NCI-60 one-dose screen, 48 h (100 = growth as untreated, 0 = no growth, -100 = all killed)
Conditions: 10 µM unless noted
This is part of a sample that, as a whole, favours compounds with a hit. Of some 83,000 tested, about 20% had one in any assay.
The entries below come with measured growth values attached.
Value expressed in %; do not type the unit.

• O=C(/C(=C\c1c(-c2ccccc2)[nH]c2ccccc12)S(=O)(=O)c1ccccc1)c1ccccc1 = 64.5
• O=C1C(Cl)=C(NCCCN(CCCNC2=C(Cl)C(=O)c3ccccc3C2=O)C2=C(Cl)C(=O)c3ccccc3C2=O)C(=O)c2ccccc21 = 102
• O=C(O)c1ccc(-n2cc(/C=N/Nc3ccc(Cl)cc3Cl)c(-c3ccccc3)n2)cc1 = 92.2

What value of measured growth is listed for COc1ccc(-c2nc(C#N)c(NCC(c3ccc(Cl)cc3)N3CCCCC3)o2)cc1 (centres undefined) ?
107

---

System: OVCAR-3 ovarian
Assay: NCI-60 one-dose screen, 48 h
Settings: 10 µM unless noted
This is part of a sample that, as a whole, favours compounds with a hit. Of some 83,000 tested, about 20% had one in any assay. Calls of active or inactive are those of the source. The calls were made as follows: active = growth percent below 10; inactive = the rest.
The categories you may choose from are active, inactive

Check out these entries, answers already filled in.
* C[C@@H]1C(=O)[C@@H]2C[C@@H](O)[C@@H](O)C[C@]2(C)[C@H]2CC[C@@]3(C)C(=C12)CC[C@@H]3[C@@](C)(O)[C@H](O)CCC(C)(C)O | inactive
* O=C1c2ccccc2C(=O)c2c1oc1c2c(=O)[nH]c2ccc(Cl)cc21 | active
* COc1ccc(/C=C(/C(=O)N2CCCC2)c2cc(OC)c(OC)c(OC)c2)cc1 | active
* CCOC(=O)c1c(C)nc2c(c1N)/C(=C/c1ccc[nH]1)C(=O)N2Cc1ccc(C(F)(F)F)cc1 | inactive
* CC(C)(C)c1nn(-c2ccccc2)c2c1COCN2Cc1ccc(Cl)cc1 | inactive
* COc1ccccc1C(=O)/C=C/c1cc2cccc(OC)c2[nH]c1=O | active

Query: recorded result category for O=C(/C(=C/c1ccc([N+](=O)[O-])cc1)SCc1ccccc1)c1ccc(Cl)cc1 in this test
inactive

Call for entry CCn1cc(C(=O)O)c(=O)c2cc(F)c(N3CCN(CC(=O)Nc4ccc(/C(C)=N/OC)cc4)CC3)cc21 :
inactive

Status in this test for CCCCc1ccc(N=Nc2ccc(OCC[N+](C)(C)C)cc2)cc1 ?
inactive

---

Test system: SK-OV-3 ovarian
Experiment: NCI-60 one-dose screen, 48 h
Settings: 10 µM unless noted
Description: Growth inhibition of the SK-OV-3 human tumor cell line is measured as a screen for anti-cancer activity. Cells are grown in 96 well plates and exposed to the test compound for 48 hours. Compounds are tested at a single concentration, which is 10^-5 M for most compounds. The reported endpoint is percent growth (GI% or GIPRCNT), where numbers from 0 - 100% represent growth inhibition, and numbers from -100% - 0 represent cell death. For example, a value of 40 represents 60% growth inhibition. […]
The panel holds about 83,000 compounds, 20% with a hit somewhere; the sample as a whole holds those more often. Active and inactive are the calls of the source. The calls were made as follows: active = growth percent below 10; inactive = the rest.
Respond using exactly one of the listed classes: yes (active), no (inactive)

• COC(=O)/C=C1\SC(=Nc2cccc(Cl)c2)N(CCc2c[nH]c3ccccc23)C1=O = no
• NS(=O)(=O)c1ccc(-n2ncc(NC(=O)Nc3ccc(S(=O)(=O)Nc4nccs4)cc3)c2-c2ccccc2)cc1 = no
• C=C1C(=O)O[C@H]2[C@H]1CC/C(COC(=O)n1ccnc1)=C\CC[C@@]1(C)O[C@@H]21 = no
• C=CCn1c(SCC(=O)Nc2ccc(C(=O)/C=C/c3cc(OC)c(OC)c(OC)c3)cc2)nnc1-c1ccc(Cl)cc1 = no
• N#CCNc1ccc(C(=O)O)cc1 = no
• O=C1CCc2ccccc2N1 = no
• CN1CCN(/C=C2\CC(C(=O)NCc3ccc(Cl)cc3Cl)NC2=O)CC1 (stereo unspecified) = no
• O=C(CN1N=C(c2ccc(F)cc2)CCC1=O)Nc1nccs1 = no
• O=C(CN1N=C(c2ccc(F)cc2)CCC1=O)Nc1nc2ccccc2s1 = no
• COc1ccc2nc(-c3ccc(OC)c(OC)c3)cc(-c3nnc(SCC(=O)Nc4ccc(/C(C)=N\O)cc4)n3-c3ccccc3)c2c1 = no

Tell me the recorded outcome of this test for COc1cc([C@H](C)c2ccc3ccccc3c2)cc(OC)c1OC .
no

Lab log entry: CCC1=C[C@H]2CN(CCc3c([nH]c4ccccc34)[C@@](C(=O)OC)(c3cc4c(cc3OC)N(C)[C@H]3[C@@](O)(C(=O)OC)[C@H](OC(C)=O)[C@]5(CC)[C@@H]6C[C@@H]6CN6CC[C@]43[C@@H]65)C2)C1 — outcome as called in the assay?
no

Dear all, I need the recorded test outcome for O=[N+]([O-])c1cccc(CN(Cc2cccc([N+](=O)[O-])c2O)c2ccccc2)c1O , thank you.
no

Which outcome was assigned to CCCNc1nc(C)[nH]c(=O)c1S in this test?
no

Check the results log: what was the call for c1cc(CNC23CC4CC(CC(C4)C2)C3)cc(C[N+](Cc2cccc(CNC34CC5CC(CC(C5)C3)C4)c2)(Cc2cccc(CNC34CC5CC(CC(C5)C3)C4)c2)Cc2cccc(CNC34CC5CC(CC(C5)C3)C4)c2)c1 (stereo unspecified) ?
no

Query: recorded result category for CC(C)(C)c1ccc(O)c(Cc2cc(C(C)(C)C)ccc2O)c1 in this test
no

Can you look up the reported call for N#CC1(C#N)C2=C(CCCC2)NC(c2c(F)cccc2Cl)C1(C#N)C#N (stereo unspecified) for me?
no

Per the records of this test, what outcome belongs to Cc1cccc(NC(=O)c2sc3nc4c(cc3c2N)CN(Cc2ccccc2)CC4)c1C ?
no

---

System: OVCAR-5 ovarian
Experiment: NCI-60 one-dose screen, 48 h
Details: 10 µM unless noted
Method: Growth inhibition of the OVCAR-5 human tumor cell line is measured as a screen for anti-cancer activity. Cells are grown in 96 well plates and exposed to the test compound for 48 hours. Compounds are tested at a single concentration, which is 10^-5 M for most compounds. The reported endpoint is percent growth (GI% or GIPRCNT), where numbers from 0 - 100% represent growth inhibition, and numbers from -100% - 0 represent cell death. For example, a value of 40 represents 60% growth inhibition. […]
About 83,000 compounds went through this panel and 20% of them were active in at least one assay; those are over-represented in the sample as a whole. Calls of active or inactive are those of the source. The calls were made as follows: active = growth percent below 10; inactive = the rest.
Write down one outcome, taken from active, inactive

Illustrative cases are given below, each with its answer.
* Cn1c2c(c3ccc(-c4ccn[nH]4)cc3c1=O)C(=O)c1ccccc1-2 | inactive
* O=CN1N=C(c2ccc(F)cc2)CC1c1cccc(Nc2ccnc3cc(C(F)(F)F)ccc23)c1 (centres undefined) | inactive
* CCOC(=O)c1c(C(F)(F)F)n([O-])c2ccc(Cl)cc2[n+]1=O | active
* COc1cc(C2=NN(c3ccccc3)C(c3cccc(Nc4ccnc5cc(C(F)(F)F)ccc45)c3)C2)cc(OC)c1OC (centres undefined) | inactive
* Nc1ccccc1NC(=O)c1ccc(CSc2nc(N3CCOCC3)c3cccn3n2)cc1 | inactive
* O=c1[nH]nc(-c2ccccc2)c2sc(NC(=S)Nc3ccc(Cl)cc3)nc12 | inactive

Could you please tell me the result logged for OCCNc1nc(NCCO)nc(Nc2ccc(C3=NN(c4cc(Cl)cc(Cl)c4)C(c4ccc(C(F)(F)F)cc4)C3)cc2)n1 (centres undefined) in this assay?
inactive

Give the logged outcome of this assay for the following compound: CSc1cccc(NC(=O)Nc2nc3c(C)cccc3s2)c1
inactive

Dear all, I need the recorded test outcome for CCCn1cc(/C=N\N=C2\C(=O)Nc3ccc(C)cc32)c2ccccc21 , thank you.
inactive

---

System: MOLT-4 leukemia
Experiment: NCI-60 one-dose screen, 48 h
Settings: 10 µM unless noted
About 83,000 compounds went through this panel and 20% of them were active in at least one assay; those are over-represented in the sample as a whole. Active and inactive are the calls of the source. The calls were made as follows: active = growth percent below 10; inactive = the rest.
Mark one answer only. Choices: 1 (yes) (active), 0 (no) (inactive)

Solved cases (4 shown):
* O=c1[nH]nc(-c2ccccc2)c2sc(NC(=S)Nc3ccc(Cl)cc3)nc12 | 0 (no)
* C=CCn1c(SCC(=O)Nc2ccc(C(=O)/C=C/c3cc(OC)c(OC)c(OC)c3)cc2)nnc1-c1ccc(Cl)cc1 | 1 (yes)
* CCCCCCC/C=C/[C@H]1O[C@]23C(=O)C[C@@]4(C[C@@H](OC5OC(CO)C(O)C(O)C5O)C[C@@H]4[C@H]2C=C1C)OC3=O (stereo partly drawn) | 1 (yes)
* C#C[C@@]1(O)[C@@H](CO)O[C@@H](n2cnc3c(-c4ccccc4)ncnc32)[C@@H]1O | 0 (no)

Which result was noted for this compound in the test: O=C1Nc2ccccc2C12C=C(c1ccccc1)Nc1c2c(-c2ccccc2)nn1-c1ccccc1 (stereo not drawn)
0 (no)

Record lookup: outcome of this test for Cc1c(Cl)cccc1NC(=O)c1sc2nc3c(cc2c1N)CCCCCC3 ?
0 (no)

Look up the recorded call for COc1cc2cc(c1Cl)N(C)C(=O)C[C@H](OC(=O)[C@H](C)N(C)C(=O)CCS)C[C@]1(C)O[C@H]1[C@H](C)[C@@H]1C[C@@](O)(NC(=O)O1)[C@H](OC)/C=C/C=C(\C)C2 in this test.
0 (no)

What outcome does the record of this test show for O=c1nc(-c2ccccc2)c2cc(-c3ccc(N4CCCC4)nc3)ccc2[nH]1 ?
0 (no)

The origin of these recorded values is PubChem BioAssay (NCI).
